Test system: Meloidogyne incognita
assay_protocol: Meloidogyne incognita test: compound solution poured into pots with soil (loamy sand), salad seeds, gall formation after 21 days
Assay type: in vivo
measurement_setup: application rate 8 ppm, salad in soil
Protocol: Solvent: 7 parts by weight of dimethylformamide Emulsifier: 2.5 parts by weight of alkylarylpolyglycolether To produce a suitable preparation of active compound, 1 part by weight of active compound is mixed with the stated amount of solvent and emulsifier and is diluted with water to the desired concentration. In the calculation of the concentration the soil volume has to be included. […] After 21 days the nematicidal activity is determined on the basis of the percentage of gall formation. […]
measured_quantity: nematicidal activity on the basis of the percentage of gall formation (100% = no galls) (%)
// return numeric value only (unit: %, not printed)

Please review the following examples before continuing.
O=C(NS(=O)(=O)c1ccccc1Br)c1cn2cc(C(F)(F)C(F)(F)F)sc2n1: 100
COc1ccc(Cl)c(S(=O)(=O)NC(=O)c2cn3c(C)c(C(F)(F)C(F)(F)F)sc3n2)c1: 98
Cc1c(C(F)(F)C(F)(F)F)sc2nc(C(=O)NS(=O)(=O)c3ccccc3Cl)cn12: 100

State its nematicidal activity on the basis of the percentage of gall formation (100% = no galls): `Cc1ccc(C)c(S(=O)(=O)NC(=O)c2cn3cc(C(F)(F)C(F)(F)F)sc3n2)c1`
80

###

System: Meloidogyne incognita
assay_protocol: Meloidogyne incognita test: compound solution poured into pots with soil (loamy sand), salad seeds, gall formation after 21 days
Type: in vivo
measurement_setup: application rate 8 ppm, salad in soil
Protocol: Solvent: 7 parts by weight of dimethylformamide Emulsifier: 2.5 parts by weight of alkylarylpolyglycolether To produce a suitable preparation of active compound, 1 part by weight of active compound is mixed with the stated amount of solvent and emulsifier and is diluted with water to the desired concentration. In the calculation of the concentration the soil volume has to be included. […] After 21 days the nematicidal activity is determined on the basis of the percentage of gall formation. […]
nematicidal activity on the basis of the percentage of gall formation (100% = no galls) reference
State just the number; it will be interpreted in %.

O=C(NS(=O)(=O)c1ccccc1F)c1cn2cc(C(F)(F)C(F)(F)F)sc2n1 [Example I-1-226]: 80

Provide nematicidal activity on the basis of the percentage of gall formation (100% = no galls) value for the following compound: O=C(NS(=O)(=O)c1c(Cl)cccc1Cl)c1cn2cc(C(F)(F)F)sc2n1 [Example I-1-10]
98

Please indicate nematicidal activity on the basis of the percentage of gall formation (100% = no galls) recorded for COc1ccc(Cl)c(S(=O)(=O)NC(=O)c2cn3cc(C(F)(F)C(F)(F)F)sc3n2)c1 [Example I-1-147]
85

Respond only with nematicidal activity on the basis of the percentage of gall formation (100% = no galls) recorded for Cc1ccc(C)c(S(=O)(=O)NC(=O)c2cn3cc(C(F)(F)F)sc3n2)c1 [Example I-1-9]
100

Supply reported nematicidal activity on the basis of the percentage of gall formation (100% = no galls) belonging to this compound: O=C(NS(=O)(=O)c1c(F)cccc1F)c1cn2cc(C(F)(F)C(F)(F)F)sc2n1 [Example I-1-222]
90

Please report nematicidal activity on the basis of the percentage of gall formation (100% = no galls) for the following compound: COc1ccc(Br)c(S(=O)(=O)NC(=O)c2cn3cc(C(F)(F)C(F)(F)F)sc3n2)c1 [Example I-1-243]
95
